This listing pairs binders with measured koff.
biological target: T1, human PD-L1 ECD-His (human, UniProt Q9NZQ7 19-238); test: SPR, 25 C, antibody captured by anti-human IgG Fc, hPD-L1-His analyte, 1:1 fit
T1 construct: extracellular domain; Analyte in all SPR and BLI runs; also called hPD-L1_ECD-His; hPD-L1 ECD-His; not shown: His tag
T1 sequence (Q9NZQ7 19-238): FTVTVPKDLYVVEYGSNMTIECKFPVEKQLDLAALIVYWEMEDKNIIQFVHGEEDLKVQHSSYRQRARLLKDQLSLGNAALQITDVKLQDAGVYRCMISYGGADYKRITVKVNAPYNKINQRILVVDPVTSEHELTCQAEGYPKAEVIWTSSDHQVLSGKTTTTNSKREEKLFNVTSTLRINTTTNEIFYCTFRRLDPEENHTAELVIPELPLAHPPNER
Give a bare numeral; the unit s⁻¹ is implied.

[
  {
    "Binder": "PL2#4 IgG2 (antibody, V domains shown, Human IgG2 backbone) VH: EVQLVQSGGGLVKPGGSLRLSCAASGFTFSSYTMNWVRQAPGKGLEWVSSISSGSDYLYYADSVKGRFTISRDNAKNSLYLQMNSLRAEDTAVYYCARNELRWYPLAGAFDIWGQGTMVTVSS VL: QSVVTQPPSMSAAPGQRVTISCSGVSSYIESSYVSWYQQLPGTAPRLLIYDDDMRPSGIPDRFSGSKSGTSATLAITGLQTGDEADYYCKIWDSGLGGVFGGGTKLTVL",
    "koff (s⁻¹)": 0.00099
  },
  {
    "Binder": "PL2 IgG2 (antibody, V domains shown) VH: EVQLVQSGGGLVKPGGSLRLSCAASGFTFSSYTMNWVRQAPGKGLEWVSSISSGSDYLYYADSVKGRFTISRDNAKNSLYLQMNSLRAEDTAVYYCARNELRWYPQAGAFDIWGQGTMVTVSS VL: QSVVTQPPSMSAAPGQNVTISCSGSSSYIESSYVSWYQQLPGTAPRLLIYDDDMRPSGIPDRFSGSKSGTSATLAITGLQTGDEADYYCEIWDSGLGGVFGGGTKLTVL",
    "koff (s⁻¹)": 0.00217
  },
  {
    "Binder": "PL2#3 IgG2 (antibody, V domains shown, Human IgG2 backbone) VH: EVQLVQSGGGLVKPGGSLRLSCAASGFTFSSYTMNWVRQAPGKGLEWVSSISSGSDYLYYADSVKGRFTISRDNAKNSLYLQMNSLRAEDTAVYYCARNELRWYPQAGAFDRWGQGTMVTVSS VL: QSVVTQPPSMSAAPGQRVTISCSGSSSYIESSYVGWYQQLPGTAPRLLIYDDDMRPSGIPDRFSGSKSGTSATLAITGLQTGDEADYYCEIWRSGLGGVFGGGTKLTVL",
    "koff (s⁻¹)": 0.000557
  }
]

Could you now consider this next binder?
In: Entry PL2#5 IgG2 (antibody, V domains shown, Human IgG2 backbone) VH: EVQLVQSGGGLVKPGGSLRLSCAASGFTFSSYTMNWVRQAPGKGLEWVSSISSGSDYLYYADSVKGRFTISRDNAKNSLYLQMNSLRAEDTAVYYCARNELRWYPFAGAFDIWGQGTMVTVSS VL: QSVVTQPPSMSAAPGQRVTISCSGSSSYIESSYVSWYQQLPGTAPRLLIYDDDMRPSGIPDRFSGSKSGTSATLAITGLQTGDEADYYCEIWDSRLGGVFGGGTKLTVL : reported koff = ?
Out: 0.00221

Values compiled from patent US20190225691A1.
